Source of measurements: patent US20160046579A1

- assayed-system: PKR R510Q (Homo sapiens, UniProt P30613, R510Q)
- Sequence (P30613 whole entry R510Q): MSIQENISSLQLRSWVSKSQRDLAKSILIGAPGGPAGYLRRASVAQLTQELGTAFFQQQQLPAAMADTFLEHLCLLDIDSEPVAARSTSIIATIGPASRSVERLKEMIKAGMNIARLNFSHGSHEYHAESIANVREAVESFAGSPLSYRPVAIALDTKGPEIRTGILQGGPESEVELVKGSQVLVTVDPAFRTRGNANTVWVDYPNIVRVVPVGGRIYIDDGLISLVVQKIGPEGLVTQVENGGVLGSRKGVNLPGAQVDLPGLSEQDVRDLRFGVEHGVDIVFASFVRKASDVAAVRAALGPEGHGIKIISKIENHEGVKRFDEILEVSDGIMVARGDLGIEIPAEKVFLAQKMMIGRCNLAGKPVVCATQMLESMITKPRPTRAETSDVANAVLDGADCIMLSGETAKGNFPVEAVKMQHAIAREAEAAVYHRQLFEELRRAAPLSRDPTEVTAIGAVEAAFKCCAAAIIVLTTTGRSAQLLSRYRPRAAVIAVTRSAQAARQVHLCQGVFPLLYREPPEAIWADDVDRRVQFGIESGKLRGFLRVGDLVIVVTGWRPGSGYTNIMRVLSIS
- test-method-notes: PKR Mutant Assay, dose response (AC50), PKR R510Q
- Type: biochemical
- condition-notes: PKR R510Q mutant enzyme
metric: AC50

Worked examples follow.
1. Cc1cc(CC2(O)CCN(C(=O)c3ccc(NS(=O)(=O)c4cccc5nccnc45)cc3)CC2)sn1: 101 to 1000 nM
2. O=C(c1ccc(NS(=O)(=O)c2cccc3nccnc23)cc1)N1CCC(O)(Cc2cn[nH]c2)CC1: 101 to 1000 nM
3. O=C(c1ccc(NS(=O)(=O)c2cccc3scnc23)cc1)N1CCC(O)(c2sncc2Cl)CC1: 101 to 1000 nM
4. Cc1cc(C2(O)CCN(C(=O)c3ccc(NS(=O)(=O)c4cccc5nccnc45)cc3)CC2)sn1: 101 to 1000 nM
5. CC(C)CC1(O)CCN(C(=O)c2ccc(NS(=O)(=O)c3cccc4[nH]cnc34)cc2)CC1: > 10000 nM
6. CC(C)CC1(O)CCN(C(=O)c2ccc(NS(=O)(=O)c3cncc4cccnc34)cc2)CC1: 101 to 1000 nM

Now consider the entry below.
Note down AC50 recorded for CS(=O)(=O)CC1(O)CCN(C(=O)c2ccc(NS(=O)(=O)c3cccc4nccnc34)cc2)CC1 1010 to 10000 nM
